Endpoint: pKi. System: Carbonic anhydrase 9 (Homo sapiens, UniProt Q16790). Items follow.
pKi field: float, defined as -log10 of concentration (mol/L).

Please review the following examples before continuing.
Challenge: Field request: pKi | item: NS(=O)(=O)c1ccc(-n2cc(-c3ccccc3)[nH]c2=O)cc1
Response given: 7.47

Challenge: Field request: pKi | item: NS(=O)(=O)c1ccc(N(/C=C/C(=O)C(F)(F)F)CC(=O)c2ccccc2)cc1
Response given: 8.02

Challenge: Field request: pKi | item: NS(=O)(=O)c1ccc(N(/C=C/C(=O)C(F)(F)F)Cc2ccccc2)cc1
Response given: 7.41

Challenge: Field request: pKi | item: NS(=O)(=O)c1ccc(-n2cc(-c3ccc(F)cc3)[nH]c2=S)cc1
Response given: 7.43

Challenge: Field request: pKi | item: NS(=O)(=O)c1ccc(N(/C=C/C(=O)C(F)(F)F)CC(=O)c2ccc(F)cc2)cc1
Response given: 7.89

Challenge: Field request: pKi | item: Cc1ccc(C(=O)CN(/C=C/C(=O)C(F)(F)F)c2ccc(S(N)(=O)=O)cc2)cc1
Response given: 7.74

Now for a further molecule.
Challenge: Field request: pKi | item: NS(=O)(=O)c1ccc(N(/C=C/C(=O)C(F)(F)F)CC(=O)c2ccc(Cl)cc2)cc1
Response given: 7.77
